tested on: 817829-284-R-J1-PDC complex spheroids, viability; assay: Anticancer human tumor 817829-284-R-J1-PDC patient-derived colon adenocarcinoma cell line growth inhibition [CLK]; details: second compound 1 µM; first compound 0.0316 µM; active compounds read low
OBSERVED PROPERTY: viability, T/C (%)
Give your result in % as a bare value.

Examples from the recorded data:
MOLECULE: CCc1c2c(nc3ccc(O)cc13)-c1cc3c(c(=O)n1C2)COC(=O)[C@]3(O)CC + CNC(=O)c1ccc(Nc2nc(OC3CCCC3)c3c(-c4ccc5nc(C)oc5c4)c[nH]c3n2)c(OC)c1
viability, T/C (%): 7.9

MOLECULE: C#Cc1c(F)ccc2cc(O)cc(-c3ncc4c(N5CC6CCC(C5)N6)nc(OCC56CCCN5CC(F)C6)nc4c3F)c12 (stereo not drawn) + CN1CCN(c2cc(C(=O)Nc3cc4cc(-c5cnn(C)c5)ccc4cn3)ccn2)CC1
viability, T/C (%): 0.1

We next turn to a different molecule, shown below.
# query: viability, T/C | item COc1c(OCCCN2CCOCC2)ccc2c3n(c(=NC(=O)c4cnc(N)nc4)nc12)CCN3 + CN1CCN(c2cc(C(=O)Nc3cc4cc(-c5cnn(C)c5)ccc4cn3)ccn2)CC1 | system: 817829-284-R-J1-PDC complex spheroids, viability
0.12

---

system: 817829-284-R-J1-PDC complex spheroids, viability; experiment: Anticancer human tumor 817829-284-R-J1-PDC cell line growth inhibition [CLK]; conditions: second compound 0.316 µM; first compound 1 µM; active compounds read low;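 also: spheroids exposed to the agents for seven days before readout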
OBSERVED PROPERTY: viability, T/C (%)
Give your result in % as a bare value.

Returns the measured viability, T/C for the input molecule. Input: Nc1ccn(C2OC(CO)C(O)C2(F)F)c(=O)n1 (stereo not given) + CNC(=O)c1ccc(Nc2nc(OC3CCCC3)c3c(-c4ccc5nc(C)oc5c4)c[nH]c3n2)c(OC)c1
4.87

Returns the measured viability, T/C for the input molecule. Input: CCCS(=O)(=O)Nc1ccc(F)c(C(=O)c2c[nH]c3ncc(-c4ccc(Cl)cc4)cc23)c1F + CN1CCN(c2cc(C(=O)Nc3cc4cc(-c5cnn(C)c5)ccc4cn3)ccn2)CC1
1.17

Returns the measured viability, T/C for the input molecule. Input: C#Cc1c(F)ccc2cc(O)cc(-c3ncc4c(N5CC6CCC(C5)N6)nc(OCC56CCCN5CC(F)C6)nc4c3F)c12 (stereo not given) + CNC(=O)c1ccc(Nc2nc(OC3CCCC3)c3c(-c4ccc5nc(C)oc5c4)c[nH]c3n2)c(OC)c1
33.7

Returns the measured viability, T/C for the input molecule. Input: C=CC(=O)N1CCN(c2nc(=O)n(-c3c(C)ccnc3C(C)C)c3nc(-c4c(O)cccc4F)c(F)cc23)C(C)C1 (stereo not given) + CNC(=O)c1ccc(Nc2nc(OC3CCCC3)c3c(-c4ccc5nc(C)oc5c4)c[nH]c3n2)c(OC)c1
22.8

Returns the measured viability, T/C for the input molecule. Input: CCc1c2c(nc3ccc(O)cc13)-c1cc3c(c(=O)n1C2)COC(=O)[C@]3(O)CC + CN1CCN(c2cc(C(=O)Nc3cc4cc(-c5cnn(C)c5)ccc4cn3)ccn2)CC1
0.34

---

tested on: 817829-284-R-J1-PDC complex spheroids, viability; assay: Anticancer human tumor 817829-284-R-J1-PDC cell line growth inhibition [CLK]; settings: second compound 3.16 µM; first compound 1 µM; active compounds read low;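 also: spheroids exposed to the agents for seven days before readout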
# viability, T/C annotations
Give your result in % as a bare value.

MOLECULE: CC(Nc1ccc2c(c1)OCCn1cc(N3C(=O)OCC3C(F)F)nc1-2)C(N)=O (centres undefined) + CNC(=O)c1ccc(Nc2nc(OC3CCCC3)c3c(-c4ccc5nc(C)oc5c4)c[nH]c3n2)c(OC)c1
ENDPOINT RESULT: 18.6

MOLECULE: Nc1ccn(C2OC(CO)C(O)C2(F)F)c(=O)n1 (centres undefined) + CN1CCN(c2cc(C(=O)Nc3cc4cc(-c5cnn(C)c5)ccc4cn3)ccn2)CC1
ENDPOINT RESULT: 0.09

MOLECULE: C=C(F)C(=O)N1CCN(c2nc(OCC3CCCN3C)nc3c2CCN(c2cccc4cccc(Cl)c24)C3)CC1CC#N (centres undefined) + CNC(=O)c1ccc(Nc2nc(OC3CCCC3)c3c(-c4ccc5nc(C)oc5c4)c[nH]c3n2)c(OC)c1
ENDPOINT RESULT: 21

Returns the measured viability, T/C for the input molecule. Input: CCc1c2c(nc3ccc(O)cc13)-c1cc3c(c(=O)n1C2)COC(=O)[C@]3(O)CC + CN1CCN(c2cc(C(=O)Nc3cc4cc(-c5cnn(C)c5)ccc4cn3)ccn2)CC1
0.67
